Data provenance: ChEMBL document CHEMBL1133608

# Target System: D(2) dopamine receptor (Rattus norvegicus, UniProt P61169, S197A)
# Sequence (P61169 whole entry S197A): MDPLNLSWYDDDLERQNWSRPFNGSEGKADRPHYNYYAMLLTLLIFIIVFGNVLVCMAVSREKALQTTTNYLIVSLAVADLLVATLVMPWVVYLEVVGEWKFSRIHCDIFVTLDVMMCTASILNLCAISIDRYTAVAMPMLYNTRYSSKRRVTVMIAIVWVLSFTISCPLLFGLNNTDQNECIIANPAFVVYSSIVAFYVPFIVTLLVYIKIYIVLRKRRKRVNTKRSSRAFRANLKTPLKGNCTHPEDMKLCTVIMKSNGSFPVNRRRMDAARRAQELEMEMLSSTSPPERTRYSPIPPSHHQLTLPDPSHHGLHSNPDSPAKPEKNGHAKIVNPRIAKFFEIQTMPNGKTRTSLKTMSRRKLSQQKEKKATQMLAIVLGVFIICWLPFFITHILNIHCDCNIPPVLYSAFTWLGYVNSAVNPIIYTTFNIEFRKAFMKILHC
# Method: In vitro affinity at mutant D2 receptor (S197A) in C6 (glioma) cell membranes.
# Type: cell-based

Structure Smiles	Target System	Kd
CN1C[C@H](C(N)=O)C=C2c3cccc4[nH]cc(c34)C[C@H]21	D(2) dopamine receptor (Rattus norvegicus, UniProt P61169, S197A)	1 nM
CCCN1Cc2c(C)cccc2[C@@H]2c3cc(O)c(O)cc3CC[C@H]21	D(2) dopamine receptor (Rattus norvegicus, UniProt P61169, S197A)	700 nM

---

# Target System: D(2) dopamine receptor (Rattus norvegicus, UniProt P61169, S197A)
# Method: biochemical
# Assay type: cell-based, C6 glioma
Here the recorded Kd is given for each entry.

Compound	Kd
COc1cc(CCN)ccc1O	225000 nM
CC(C)C[C@H]1C(=O)N2CCC[C@H]2[C@]2(O)O[C@](NC(=O)[C@@H]3C=C4c5cccc6[nH]c(Br)c(c56)C[C@H]4N(C)C3)(C(C)C)C(=O)N12	4 nM
N[C@@H]1CCc2cc(O)c(O)cc2C1	120 nM
CCN(CC)C(=O)N[C@H]1C=C2c3cccc4[nH]cc(c34)C[C@H]2N(C)C1 [LISURIDE]	0.4 nM
